Value source: patent US20230038638A1

- Assayed Target: soluble human C3b (human) (UniProt P01024)
Strictly below 0.04 in iC3b Screen Ref Fold (fold vs CFI-HSA wild type): MET. Otherwise: NOT MET.

query: Regarding CFI-HSA E457G; N531G; E461Q; R462K; F464Y; E530Y; GGSSGG (SEQ ID NO: 6); CR1(ccp15-17) (from UniProt P17927) (enzyme) , kindly confirm whether its iC3b Screen Ref Fold (fold vs CFI-HSA wild type) is beneath 0.04.
result: MET

query: Field entry: CFI-HSA E457G; E461Q; N531G; GGSSGG (SEQ ID NO: 6); CR1 (ccp15-17) (from UniProt P17927) (enzyme)
result: NOT MET

query: Field entry: CFI-HSA Y408L; E457G; R462K; F464Y; N531G; GGSSGG (SEQ ID NO: 6); CR1 (ccp15-17) (from UniProt P17927) (enzyme)
result: MET

query: Field entry: CFI-HSA E457G; N531G; E461Q; R462K; F464Y; GGSSGG (SEQ ID NO: 6); CR1 (ccp15-17) (from UniProt P17927) (enzyme)
result: NOT MET

query: Field entry: CFI-HSA Y408L; E457G; E461Q; R462K; N531G; GGSSGG (SEQ ID NO: 6); CR1 (ccp15-17) (from UniProt P17927) (enzyme)
result: NOT MET

query: Field entry: CFI-HSA Y408L; N531G; ΔC-term (Δ558-PFISQYNV (SEQ ID NO: 14)-565) (enzyme)
result: NOT MET

----------
- Assayed Target: human C4b (human)
- Sequence: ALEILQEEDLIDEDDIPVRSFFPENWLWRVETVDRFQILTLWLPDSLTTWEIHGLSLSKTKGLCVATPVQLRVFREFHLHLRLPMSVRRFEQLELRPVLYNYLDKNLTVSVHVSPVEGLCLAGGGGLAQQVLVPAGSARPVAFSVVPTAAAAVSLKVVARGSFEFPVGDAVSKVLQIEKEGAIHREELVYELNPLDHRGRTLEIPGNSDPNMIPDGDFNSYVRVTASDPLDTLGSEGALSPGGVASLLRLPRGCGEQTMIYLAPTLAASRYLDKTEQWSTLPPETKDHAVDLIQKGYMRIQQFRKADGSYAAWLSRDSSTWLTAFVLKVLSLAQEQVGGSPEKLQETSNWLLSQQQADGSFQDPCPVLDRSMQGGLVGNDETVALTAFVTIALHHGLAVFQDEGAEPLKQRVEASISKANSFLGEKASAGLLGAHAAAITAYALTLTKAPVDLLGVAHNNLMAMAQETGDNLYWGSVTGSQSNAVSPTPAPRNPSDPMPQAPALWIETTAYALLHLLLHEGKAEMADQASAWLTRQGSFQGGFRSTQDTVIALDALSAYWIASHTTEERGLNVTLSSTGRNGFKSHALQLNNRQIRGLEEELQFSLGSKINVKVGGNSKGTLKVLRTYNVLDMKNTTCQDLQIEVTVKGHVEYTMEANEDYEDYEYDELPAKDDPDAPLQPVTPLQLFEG
Result Type: C4b Screen Ref Fold (fold of reference)
Output: the number by itself.

query: What value of C4b Screen Ref Fold (fold of reference) has been recorded for this entry: CFI-HSA fusion WT; GGSSGG (SEQ ID NO: 6); CR1(ccp15); CR1(ccp16); fH(ccp3); fH(ccp4) (from UniProt P17927) (enzyme)
result: 0.25

query: Field entry: CFI-HSA-FH_CCP1-4 fusion, Y408L; N531G; E457G; E461Q; R462K; F464Y; GGSSGG (SEQ ID NO: 6); CCP_1-4 (enzyme)
result: 1.28

query: Field entry: CFI-HSA fusion WT; GGSSGG (SEQ ID NO: 6); fH(ccp1); CR1(ccp16); fH(ccp3); fH(ccp4) (from UniProt P17927) (enzyme)
result: 0.59
